# System: SEM cells
# Protocol details: cell viability relative to DMSO control; higher = less cytotoxic
# Protocol conditions: RPMI 5 mM glucose + 10% dialyzed FBS; 48 h; 15.4 µM
Readout: cell viability (%)
API: value field is a number in %; no unit string.

Please review the following examples before continuing.
For c1ccc(CCCN2CCN(CCOC(c3ccccc3)c3ccccc3)CC2)cc1 the molecule record lists cell viability as 23

For C[S+](=O)([O-])Nc1ccc([N+](=O)[O-])cc1Oc1ccccc1 the molecule record lists cell viability as 104

For CN(C)C1CCN(C(=O)c2ccc(NC(=O)Nc3nc(N4CCOCC4)nc(N4CCOCC4)n3)cc2)CC1 the molecule record lists cell viability as 22

For NNCCc1ccccc1 the molecule record lists cell viability as 117

For CC(C)(C)NC(=O)Nc1cccc(Nc2ncc(F)c(NC(C)(C)CO)n2)c1 the molecule record lists cell viability as 19.9

***
For COc1cc(OC2CCN(C)CC2)ccc1Nc1ncc2c(n1)n(C1CCCC1)c(=O)n2C the molecule record lists cell viability as 26.6

For CC[S+](=O)([O-])c1cccc(-c2cc(C(=O)NC3CCN(C)CC3)c(C)c3[nH]c4ncc(C)cc4c23)c1 the molecule record lists cell viability as 20.6

For FC1=CC=C(C=C1)N2/C=C\C=C(C(=O)NC3=CC=C(OC4=C5C=C[NH]C5=NC=C4)C(=C3)F)/C2=O the molecule record lists cell viability as 74.8

For COCC1(CO)C(=O)C2CCN1CC2 (centres undefined) the molecule record lists cell viability as 61.8

---

# Test system: P12-Ichikawa
# Protocol details: cell viability relative to DMSO control; higher = less cytotoxic
# Protocol conditions: HPLM + 10% dialyzed FBS; 48 h; 1.71 µM
Listed compounds paired with reported cell viability
API: value field is a number in %; no unit string.

For CC(C)(C)NC(=O)Nc1cccc(Nc2ncc(F)c(NC(C)(C)CO)n2)c1 the compound record lists cell viability as 120

---

# Test system: P12-Ichikawa
# Protocol details: cell viability relative to DMSO control; higher = less cytotoxic
# Protocol conditions: RPMI 5 mM glucose + 10% FBS; 48 h; 0.19 µM
Listed molecules paired with reported cell viability
API: value field is a number in %; no unit string.

Please review the following examples before continuing.
Assay P12-Ichikawa, sample COc1ccccc1OCC(O)COC(N)=O (stereo not drawn) , cell viability read: 118

Assay P12-Ichikawa, sample OC[C@H]1O[C@H]([C@H](O)[C@@H]1O)N2\C=C/C(=O)NC2=O , cell viability read: 104

Assay P12-Ichikawa, sample COC(=O)C[C@](O)(CCCC(C)(C)O)C(=O)O[C@@H]1C(OC)=CC23CCCN2CCc2cc4c(cc2[C@H]13)OCO4 (stereo partly drawn) , cell viability read: 101

Assay P12-Ichikawa, sample C[C@H]1COC2=C3N1\C=C(C(O)=O)/C(=O)C3=CC(=C2N4CCN(C)CC4)F , cell viability read: 116

Assay P12-Ichikawa, sample NC\1=N\C(=O)N(\C=C1)[C@@H]2O[C@H](CO)[C@@H](O)[C@@H]2O , cell viability read: 3.94

Assay P12-Ichikawa, sample CNC(=O)c1ccc2cc(C3(O)CCn4cncc43)ccc2c1 (stereo not drawn) , cell viability read: 125

***
Assay P12-Ichikawa, sample S=C(NCc1ccc2c(c1)OCO2)N1CCN(c2ncnc3c2oc2ccccc23)CC1 , cell viability read: 102

Assay P12-Ichikawa, sample CNCC(O)c1ccc(O)cc1 (stereo not drawn) , cell viability read: 127

Values compiled from the supplement of paper PMC11451515.
